Test system: Escherichia coli
MEASUREMENT_PROTOCOL: Antibacterial activity against Escherichia coli MTCC 51 at 10 ug/ml after 24 hr by agar well diffusion method
Format: functional
TEST_READOUT: diameter of the inhibition zone (DIZ) (%)
Use % as the unit, but write only the number.

Before answering, review these 4 worked examples.
Cc1ccc(-c2nc3ccccc3o2)s1 | 12.45
Cc1ccsc1-c1nc2cc(Cl)ccc2o1 | 10.33
Clc1ccc2oc(-c3cccs3)nc2c1 | 17.74
Cc1ccc(-c2nc3cc(Cl)ccc3o2)cc1 | 18.62

IN: Given `Clc1ccc2oc(-c3ccccc3)nc2c1` , respond with its diameter of the inhibition zone (DIZ).
OUT: 19.92
